These data points were gathered from patent USRE47350E1.

# ASSAY NAME: Linear calculated pharmacokinetic parameters (Table 33)
# Format: in vivo
# CONDITIONS USED: human, plasma, po, dose 5 mg
MEASUREMENT TYPE: Cmax (ng/mL)
A number alone suffices; assume ng/mL.

Exam item: Return Cmax for the following compound: CN(C)C(=O)N[C@H]1CC[C@H](CCN2CCN(c3cccc(Cl)c3Cl)CC2)CC1 [cariprazine]
Marked response: 6.33

----------
# ASSAY NAME: Linear calculated pharmacokinetic parameters (Table 33)
# Assay type: in vivo
# CONDITIONS USED: human, plasma, po, dose 9 mg, read-out: Mean AUC0-168
MEASUREMENT TYPE: AUC(0-t) (ng·h/mL)
I only need the number, in ng·h/mL, no unit after it.

Exam item: Check the records and state AUC(0-t) for CN(C)C(=O)N[C@H]1CC[C@H](CCN2CCN(c3cccc(Cl)c3Cl)CC2)CC1
Marked response: 290

----------
# ASSAY NAME: Multiple dose study in healthy male volunteers (Example 6)
# Type: in vivo
# CONDITIONS USED: human, plasma, 1 mg, Group IV: 21 doses of 1.0 mg every day, fasted
MEASUREMENT TYPE: Cmax
Respond with the figure and its unit, in that order.

Exam item: Annotate the compound CN(C)C(=O)N[C@H]1CC[C@H](CCN2CCN(c3cccc(Cl)c3Cl)CC2)CC1 with its measured Cmax.
Marked response: 3.9 ng/mL

----------
# ASSAY NAME: Double-blind placebo controlled single dose pharmacokinetic study of cariprazine capsules in healthy male volunteers (Example 4)
# Format: in vivo, human
# CONDITIONS USED: male, human, plasma, oral; mean; single dose 1 mg capsules, fasted; Group I Period 1
MEASUREMENT TYPE: Cmax (ng/mL)
Give a bare numeral; the unit ng/mL is implied.

Exam item: Provide one value: measured Cmax of CN(C)C(=O)N[C@H]1CC[C@H](CCN2CCN(c3cccc(Cl)c3Cl)CC2)CC1
Marked response: 0.76

----------
# ASSAY NAME: Multiple dose study in healthy male volunteers (Example 6)
# Format: in vivo
# CONDITIONS USED: human, plasma, 1 mg, Group IV: 21 doses of 1.0 mg every day, fasted, read-out: tmax (range only printed)
MEASUREMENT TYPE: Tmax

Exam item: Using known records, supply Tmax for CN(C)C(=O)N[C@H]1CC[C@H](CCN2CCN(c3cccc(Cl)c3Cl)CC2)CC1 [cariprazine]
Marked response: 2 to 3 h

----------
# ASSAY NAME: Double-blind placebo controlled single dose pharmacokinetic study of cariprazine capsules in healthy male volunteers (Example 4)
# Assay type: in vivo, human
# CONDITIONS USED: male, human, plasma, oral; mean; single dose 0.5 mg capsules, fasted; Group III Period 1
MEASUREMENT TYPE: half-life (h)
Quick note: give the figure in h, leave out the unit.

Exam item: Please give the documented half-life of CN(C)C(=O)N[C@H]1CC[C@H](CCN2CCN(c3cccc(Cl)c3Cl)CC2)CC1 [cariprazine]
Marked response: 217

----------
# ASSAY NAME: Double-blind placebo controlled single dose pharmacokinetic study of cariprazine capsules in healthy male volunteers (Example 4)
# Type: in vivo, human
# CONDITIONS USED: male, human, plasma, oral; mean; single dose 1 mg capsules, fasted; Group I Period 1
MEASUREMENT TYPE: Tmax (h)
Write down the numeric answer in h and omit the unit.

Exam item: Identify measured Tmax corresponding to CN(C)C(=O)N[C@H]1CC[C@H](CCN2CCN(c3cccc(Cl)c3Cl)CC2)CC1 [cariprazine]
Marked response: 3
